Molecular target: human AChE (Homo sapiens, UniProt P22303)
Construct: purchased Sigma-Aldrich
Sequence (P22303 32-614): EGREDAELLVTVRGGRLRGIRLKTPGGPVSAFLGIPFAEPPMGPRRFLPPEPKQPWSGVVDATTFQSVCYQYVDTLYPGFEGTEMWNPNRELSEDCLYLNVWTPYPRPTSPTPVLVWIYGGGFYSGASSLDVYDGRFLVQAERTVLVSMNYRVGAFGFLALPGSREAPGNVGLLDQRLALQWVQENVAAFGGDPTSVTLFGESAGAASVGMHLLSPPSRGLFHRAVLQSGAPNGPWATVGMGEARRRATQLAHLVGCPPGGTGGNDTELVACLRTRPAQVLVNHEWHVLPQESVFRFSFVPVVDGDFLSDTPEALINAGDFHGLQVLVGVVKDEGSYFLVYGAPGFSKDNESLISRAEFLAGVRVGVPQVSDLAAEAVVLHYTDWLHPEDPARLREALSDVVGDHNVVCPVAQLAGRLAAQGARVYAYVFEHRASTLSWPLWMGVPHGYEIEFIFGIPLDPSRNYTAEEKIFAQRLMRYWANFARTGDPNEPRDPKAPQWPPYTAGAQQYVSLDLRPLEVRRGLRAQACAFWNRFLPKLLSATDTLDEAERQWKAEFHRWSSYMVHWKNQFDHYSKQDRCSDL
Assay: In vitro cholinesterase inhibition (Ellman), AChE
Assay type: biochemical
Conditions: AChE IC50, as printed in text and Figure 9
Measured endpoint: IC50 (nM)
// return numeric value only (unit: nM, not printed)

IC50 of CC[N+](CC)(CCCCCn1c(=O)ccn(CCCCn2c(C)cc(=O)n(C)c2=O)c1=O)Cc1ccccc1C#N [2b] on human AChE (Homo sapiens, UniProt P22303)?
0.0649

====

Target: human AChE (Homo sapiens, UniProt P22303)
Construct: purchased Sigma-Aldrich
Experiment: Inhibition constants (Dixon and Cornish–Bowden plots), AChE
Format: biochemical
Settings: ATCh as substrate; read-out: Kci (competitive inhibition constant), AChE
Measured endpoint: Ki (pM)
// return numeric value only (unit: pM, not printed)

Consider the compound shown here: CCN(CCCCCn1c(=O)ccn(CCCCCn2c(C)cc(=O)n(C)c2=O)c1=O)Cc1ccccc1C#N [3c] What is its recorded Ki?
700
